The measurements presented in this section are drawn from patent US20250215029A1.

target: Recombinant STAT3 protein (STAT3 (G127-I722)) (Homo sapiens, UniProt P40763); construct: Recombinant STAT3 protein (STAT3 (G127-I722)); experiment: STAT3 Fluorescence Polarization (FP) Assay; assay type: binding; conditions: STAT3 (G127-I722) 25 nM, probe 5-FAM-GpYLPQTV-NH2 2 nM, 45-minute incubation; read-out: STAT3 (FP assay IC50 class)
Sequence (P40763 127-722): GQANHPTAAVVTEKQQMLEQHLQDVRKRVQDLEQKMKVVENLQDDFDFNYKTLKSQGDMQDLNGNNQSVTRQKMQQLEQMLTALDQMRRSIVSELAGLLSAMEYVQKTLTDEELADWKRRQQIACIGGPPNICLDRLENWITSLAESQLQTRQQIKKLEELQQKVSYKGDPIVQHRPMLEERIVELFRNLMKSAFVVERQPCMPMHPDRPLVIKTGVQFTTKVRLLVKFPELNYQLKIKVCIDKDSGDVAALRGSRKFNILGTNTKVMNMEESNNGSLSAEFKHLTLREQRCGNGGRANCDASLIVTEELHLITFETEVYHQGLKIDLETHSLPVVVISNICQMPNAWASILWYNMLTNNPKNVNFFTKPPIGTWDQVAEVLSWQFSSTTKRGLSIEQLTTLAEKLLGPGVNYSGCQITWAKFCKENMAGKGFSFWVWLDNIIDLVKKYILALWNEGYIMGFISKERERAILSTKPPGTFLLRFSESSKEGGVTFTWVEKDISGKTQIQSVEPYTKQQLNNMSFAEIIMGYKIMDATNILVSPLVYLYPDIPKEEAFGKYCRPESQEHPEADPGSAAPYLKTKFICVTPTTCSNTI
pIC50: −log10 of the molar value.
measuredEndpoint: pIC50

# example entries with known answers
molecule="N#C[C@H]1[C@H](c2ccccc2)CN(C(=O)[C@@H]2CC[C@@H]3CCCC[C@H](NC(=O)c4cc5cc(C(F)P(=O)(O)O)ccc5s4)C(=O)N32)C12CC2 (relative stereo)" reportedresult="5.00 to 6.00"
molecule="Cn1nccc1N1CC[C@@H](NC(=O)[C@@H]2CC[C@@H]3CCCC[C@H](NC(=O)c4cc5cc(C(F)P(=O)(O)O)ccc5s4)C(=O)N32)C1 (stereo partly drawn)" reportedresult="5.00 to 6.00"

// switching to the query molecule
Which pIC50 is listed for Cc1nnc([C@H]2[C@H](c3ccccc3)CN2C(=O)[C@@H]2CC[C@@H]3CCC[C@H](NC(=O)c4cc5cc(C(F)P(=O)(O)O)ccc5s4)C(=O)N32)o1 (single isomer, unassigned) [Compound 674] ?
6.00 to 7.00

----------
Biological target: Recombinant STAT6 protein (STAT6 (W123-T658)) (Homo sapiens)
Construct: Recombinant STAT6 protein (STAT6 (W123-T658))
Sequence (P42226 123-658): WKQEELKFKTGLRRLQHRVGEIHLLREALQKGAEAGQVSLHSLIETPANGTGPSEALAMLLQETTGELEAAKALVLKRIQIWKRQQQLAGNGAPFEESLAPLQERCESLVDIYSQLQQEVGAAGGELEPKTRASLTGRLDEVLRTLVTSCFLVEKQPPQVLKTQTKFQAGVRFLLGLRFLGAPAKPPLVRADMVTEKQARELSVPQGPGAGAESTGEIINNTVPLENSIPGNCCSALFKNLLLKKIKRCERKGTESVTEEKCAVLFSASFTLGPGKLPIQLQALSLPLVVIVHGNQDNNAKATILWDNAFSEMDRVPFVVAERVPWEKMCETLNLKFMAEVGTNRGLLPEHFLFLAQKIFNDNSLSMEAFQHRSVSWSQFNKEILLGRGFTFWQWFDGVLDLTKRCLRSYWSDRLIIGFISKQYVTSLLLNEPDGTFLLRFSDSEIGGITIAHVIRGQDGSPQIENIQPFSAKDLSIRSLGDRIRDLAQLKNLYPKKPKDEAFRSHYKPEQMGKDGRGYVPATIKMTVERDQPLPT
Assay: STAT6 Fluorescence Polarization (FP) Assay
Format: binding
Conditions: STAT6 (W123-T658) 250 nM, probe 5-FAM-Ap[…]-NH2 2 nM, 45-minute incubation; read-out: STAT6 (FP assay IC50 class)
measuredEndpoint: IC50

Some compounds with recorded IC50:
compound="O=C(N[C@H]1CCC[C@H]2CC[C@@H](C(=O)N3CC(c4cnccc4N4CCOCC4)C3)N2C1=O)c1cc2cc([C@H](F)P(=O)(O)O)ccc2s1 (single isomer, unassigned)" measuredendpoint=IC50 reportedresult="3 to 30 µM"
compound=C[C@@H]1CC[C@H](NC(=O)c2cc3cc(CP(=O)(O)O)ccc3s2)C(=O)N2[C@H](CC[C@H]2C(=O)N2CC(c3cnccc3F)C2)C1 measuredendpoint=IC50 reportedresult="3 to 30 µM"
compound="Cn1ccc(C2(F)CCN(C(=O)[C@@H]3CC[C@@H]4CCCC[C@H](NC(=O)c5ccc6ccc(C(F)P(=O)(O)O)cc6c5)C(=O)N43)C2)cc1=O (some centres unmarked)" measuredendpoint=IC50 reportedresult="0.3 to 3 µM"
compound=O=C(N[C@H]1CCCC[C@H]2CC[C@@H](C(=O)N3CC(c4cnccc4F)C3)N2C1=O)c1cc2cc(CP(=O)(O)O)ccc2s1 measuredendpoint=IC50 reportedresult="3 to 30 µM"

Endpoint output: IC50 of O=C(N[C@H]1CCC[C@H]2CC[C@@H](C(=O)N3CC(c4cccnc4)C3)N2C1=O)c1cc2nc(CP(=O)(O)O)ccc2s1 . Value?
3 to 30 µM

Need IC50 of O=C(N[C@H]1CCC[C@H]2CC[C@@H](C(=O)N3CC(c4cnccc4N4CCC4)C3)N2C1=O)c1cc2cc(CP(=O)(O)O)ccc2s1 , thanks.
3 to 30 µM

Given CNc1ccncc1C1CN(C(=O)[C@@H]2CC[C@@H]3CCC[C@H](NC(=O)c4cc5cc(CP(=O)(O)O)ccc5s4)C(=O)N32)C1 , state its recorded IC50.
3 to 30 µM

Quick one: IC50 of O=C(N[C@H]1CCCC[C@H]2CC[C@@H](C(=O)N3CCC(c4cccnc4)CC3)N2C1=O)c1cc2cc(C(F)P(=O)(O)O)ccc2s1 (some centres unmarked) ?
3 to 30 µM

Please give the measured IC50 for this compound: COC[C@@H]1CCN1c1ccncc1C1CN(C(=O)[C@@H]2CC[C@@H]3CCC[C@H](NC(=O)c4cc5cc([C@@H](F)P(=O)(O)O)ccc5s4)C(=O)N32)C1
3 to 30 µM

Returns the measured IC50 for the input compound. Input: COc1cc(C(F)F)ncc1C1CN(C(=O)[C@@H]2CC[C@@H]3CCC[C@H](NC(=O)c4cc5cc(CP(=O)(O)O)ccc5s4)C(=O)N32)C1
3 to 30 µM

Fill blank: measured IC50 of the compound CC(C)[C@H]1CC[C@H](NC(=O)c2cc3cc(C(F)P(=O)(O)O)ccc3s2)C(=O)N2[C@H](CC[C@H]2C(=O)N2C[C@@H](C#N)[C@H](c3ccccc3)C2)C1 (single isomer, unassigned) is ____.
≤ 0.3 µM
